Test: Relative cell viability in HCHT screening (propidium iodide negative nuclei count)
Format: cell-based
Details: human, HeLa Kyoto cells, HeLa; tpre 0.5 h with inhibitor, removal, tinc 0.5 h with 1 (10 µM); read-out: GI50, concentration causing 50% cell growth inhibition
Bridge positions count the residues as written; N and C are the ends. Peptide text beside a SMILES is read from it.
This section presents compounds with their documented GI50 at 0.5 h values.

INSERT INTO results (compound, reported) VALUES
  ('N[C@H]1CSSC[C@@H](C(=O)N[C@@H](CCC(=O)O)C(=O)O)NC(=O)CNC1=O [compound 19] (H-CGCE-OH; disulfide 1-3)', '> 2000 µM');

As a next step, examine the compound that follows.
Entry N[C@H]1CSSC[C@@H](C(=O)NCC(=O)O)NC(=O)[C@H](CCC(=O)O)NC1=O [compound 18] (H-CECG-OH; disulfide 1-3) has what GI50 at 0.5 h?
> 2000 µM

Source: paper PMC8179002
